Value source: patent US9409952B2

Experiment notes: PAMPA (parallel artificial membrane permeability assay)
Format: in vitro ADME
Test context: PAMPA; membrane permeation rate (Pe); 50 mM MOPSO buffer pH 6.5 with 5.0% glycocholic acid, 37° C., 18 hours; read-out: iPAMPA Pe
Positions of bridges follow the written chain, without caps; N, C: chain ends. Non-standard residues stand in square brackets, D forms with d. Residues, ends and D or L forms follow the SMILES beside them. *: point of attachment. Lys(Me2) = CN(C)CCCC[C@H](N)C(=O)O; hhPhe = N[C@@H](CCCc1ccccc1)C(=O)O; NMeF = CN[C@@H](Cc1ccccc1)C(=O)O; NMeL = CN[C@@H](CC(C)C)C(=O)O; NMeV = CN[C@H](C(=O)O)C(C)C; NMeA = CN[C@@H](C)C(=O)O; Piperidide = C1CCN(*)CC1; dNMeA = CN[C@H](C)C(=O)O; Sar = CNCC(=O)O
Items are presented alongside their recorded Papp at 18 hours, 50 µM.
Kindly format the answer as number then unit.

Example results:
For this molecule ( CC[C@H](C)[C@@H]1NC(=O)[C@H](Cc2ccccc2)N(C)C(=O)[C@H](CCCc2ccccc2)NC(=O)[C@H](C(C)C)N(C)C(=O)[C@H](CC(C)C)N(C)C(=O)[C@H](CC(C)C)NC(=O)[C@@H](C)NC(=O)C[C@@H](C(=O)N2CCCCC2)NC(=O)[C@H]([C@@H](C)O)NC(=O)[C@H](C)NC(=O)[C@H](C)N(C)C1=O [DP-731] ([dA]L[NMeL][NMeV][hhPhe][NMeF]I[NMeA]ATD-Piperidide; lactam N-11) ), measured Papp at 18 hours, 50 µM is 48 ×10⁻⁶ cm/s

For CC(C)C[C@H]1C(=O)N[C@@H]([C@@H](C)O)C(=O)N(C)[C@@H](C)C(=O)N(C)[C@@H](Cc2ccccc2)C(=O)N(C)CC(=O)N[C@@H](C)C(=O)N(C)[C@@H](Cc2ccccc2)C(=O)N(C)[C@@H](CC(C)C)C(=O)N[C@H](C(=O)N2CCCCC2)CC(=O)N(C)[C@H](C)C(=O)N(C)[C@@H](C)C(=O)N1C [DP-419] ([dNMeA][NMeA][NMeL]T[NMeA][NMeF][Sar]A[NMeF][NMeL]D-Piperidide; lactam N-11) the molecule record lists Papp at 18 hours, 50 µM as 6.7 ×10⁻⁶ cm/s

Lab note: CC(C)C[C@H]1C(=O)N(C)[C@@H](CC(C)C)C(=O)N[C@H](C(=O)N(C)[C@@H](Cc2ccccc2)C(=O)N[C@@H](C)C(=O)N2CCCCC2)CC(=O)N[C@H](C(C)C)C(=O)N(C)[C@@H](C)C(=O)N(C)[C@@H](Cc2ccccc2)C(=O)N(C)[C@@H](CC(C)C)C(=O)N[C@@H]([C@@H](C)O)C(=O)N(C)CC(=O)N[C@@H](C(C)C)C(=O)N1C [DP-123] ([dV][NMeA][NMeF][NMeL]T[Sar]V[NMeL][NMeL]D[NMeF]A-Piperidide; lactam N-10) gave Papp at 18 hours, 50 µM of 58 ×10⁻⁶ cm/s

For the next question, use this molecule.
Lab book: Papp at 18 hours, 50 µM of CC(C)C[C@@H]1NC(=O)[C@H](CC(C)C)N(C)C(=O)[C@H](CCCCN(C)C)NC(=O)[C@H](CC(C)C)N(C)C(=O)[C@H](Cc2ccccc2)N(C)C(=O)[C@H](CC(C)C)N(C)C(=O)[C@@H](C(C)C)NC(=O)C[C@@H](C(=O)N(C)[C@@H](Cc2ccccc2)C(=O)N[C@@H](C)C(=O)N2CCCCC2)NC(=O)[C@H](CC(C)C)N(C)C(=O)[C@H](CC(C)C)N(C)C1=O [DP-588] ([dV][NMeL][NMeF][NMeL][Lys(Me2)][NMeL]L[NMeL][NMeL]D[NMeF]A-Piperidide; lactam N-10) noted as 0.6 ×10⁻⁶ cm/s
